Source: the supplement of paper PMC7877785

assay: self-splicing fitness, log relative to wild type (ln ratio); higher = more splicing; Tetrahymena group I intron in knt gene, E. coli kanamycin selection, DiMSum; sequences stand for … in CUCUCU…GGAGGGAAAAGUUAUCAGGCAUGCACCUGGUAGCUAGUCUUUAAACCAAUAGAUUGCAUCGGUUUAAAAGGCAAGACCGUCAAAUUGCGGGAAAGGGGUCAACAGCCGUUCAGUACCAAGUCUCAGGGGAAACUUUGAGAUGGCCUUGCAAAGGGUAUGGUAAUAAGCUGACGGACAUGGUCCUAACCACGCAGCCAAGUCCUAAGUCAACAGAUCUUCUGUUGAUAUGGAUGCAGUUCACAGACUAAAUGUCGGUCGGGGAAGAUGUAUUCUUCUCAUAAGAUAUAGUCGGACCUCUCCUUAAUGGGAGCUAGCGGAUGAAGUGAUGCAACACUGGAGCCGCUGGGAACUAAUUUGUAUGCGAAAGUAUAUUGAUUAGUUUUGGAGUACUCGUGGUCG; conditions: 30 °C;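 note: selection with 25 µg/mL kanamycin versus none on LB agar overnight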

polymer.sequence	self-splicing fitness (ln)
GGGUAGCAAUAUUACGGUCC	-1.34
GAUAAGCAAUAUUACGAGGG	-4.01
CGCCAGCAAUAUUACGACGG	-1.65
AGUUAGCAAUAUUACGGCGC	-0.53
CGUGAGCAAUAUUACGUAAG	-0.896
UUAGAGCAAUAUUACGGUAU	-3.84
CUAGAGCAAUAUUACGCAAG	-1.8
CACUAGCAAUAUUACGCCAA	-2.23
CGCAAGCAAUAUUACGCUUA	-3.58
AUUCAGCAAUAUUACGAUUA	-0.138
UCGUAGCAAUAUUACGAUGC	-4.1
ACGAAGCAAUAUUACGAGAU	-4.36
